# target_system: T1, extracellular domain (ECD) of recombinant human Sortilin with a C-terminal HIS tag (ECD-huSortilin-HIS) (human, UniProt Q99523 78-755)
# T1 construct: Bought (R&D Systems); also called human sortilin-ECD; not shown: C-terminal HIS tag
# T1 sequence: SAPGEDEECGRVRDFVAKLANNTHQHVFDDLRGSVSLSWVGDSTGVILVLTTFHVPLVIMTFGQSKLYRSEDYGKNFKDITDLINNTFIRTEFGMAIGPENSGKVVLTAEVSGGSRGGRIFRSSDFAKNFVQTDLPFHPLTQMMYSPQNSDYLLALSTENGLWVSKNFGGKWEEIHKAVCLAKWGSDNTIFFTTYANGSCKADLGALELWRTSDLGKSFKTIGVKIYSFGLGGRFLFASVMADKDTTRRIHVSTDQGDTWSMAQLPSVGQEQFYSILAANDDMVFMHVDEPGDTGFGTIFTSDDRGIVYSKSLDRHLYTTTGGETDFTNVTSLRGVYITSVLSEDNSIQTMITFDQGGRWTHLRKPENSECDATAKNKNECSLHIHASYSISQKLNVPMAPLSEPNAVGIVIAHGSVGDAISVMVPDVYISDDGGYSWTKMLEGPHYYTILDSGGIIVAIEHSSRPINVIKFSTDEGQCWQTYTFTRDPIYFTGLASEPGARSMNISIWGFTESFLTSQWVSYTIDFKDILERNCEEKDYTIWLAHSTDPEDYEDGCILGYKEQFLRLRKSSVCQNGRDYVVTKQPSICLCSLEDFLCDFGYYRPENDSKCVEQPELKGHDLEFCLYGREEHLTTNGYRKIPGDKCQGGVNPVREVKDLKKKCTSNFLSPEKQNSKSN
# assay_method_text: blocking ELISA, coated ECD-huSortilin-HIS; blocked ligand huPGRN-Biotin
% Blocking at 7.4nM mAb overview
Please respond with the number in % and leave the unit unwritten.

| binder | readout_kind | obs_value |
| --- | --- | --- |
| mouse monoclonal antibody 5E20 (antibody, mouse IgG1, V domains shown, mouse IgG1, kappa; also called ms5E20; ms5E20new) VH: EVQLVESGGDLVKPGGSLKLSCAAPGFTFSTYGMSWVRQTPDKRLEWVAIISSGGSYTYYSDTVKGRFTISRDNAKNTLYLQMSSLKSEDTAMYYCSRSSSHWYFDVWGTGTTVTVSS VL: DILMTQSPSSMSVSLGDTVSITCHASQGISSNIGWLQQKPGKSFKGLIYHGTNLKDGVPSRFSGSGSGADFSLTISSLESEDFADYFCVQYAQFPYTFGGGTKLEKR | % Blocking at 7.4nM mAb | 76 |

[Q] Read off the recorded % Blocking at 7.4nM mAb for mouse monoclonal antibody 11M14 (antibody, mouse IgG1, V domains shown, mouse IgG1, kappa; also called ms11M14) VH: EVQLVESGGDLVKPGGSLKLSCAASGFTFNIYGMSWVRQTPDKRLEWVATISSGGIYTYYPDILKGRFTISRDNAKNTLYLQMSSLKSEDTAMYYCARHPGGAMDYWGQGTSVTVSS VL: DIQMTQSPASLSVSVGETVTITCRVSENIYSNLAWYQQKQGKSPHLLVYAATNLADGVPSRFSGSGSGTQYSLKINSLQSEDFGSYYCQHFWGTPPWTFGGGTKLEIK
[A] 75

[Q] Note % Blocking at 7.4nM mAb for the binder shown: mouse monoclonal antibody 9N18 (antibody, mouse IgG2b, V domains shown, mouse IgG2b, kappa) VH: EIQLQQSGPELVKPGASVKISCKASGYSFTGYYMNWVKQSPEKSLEWIGEINPITGGTTYNQNFKAKATLTVDKSSSTAYLQLRSLTSEDSAVYYCASDYFGSNSWFAYWGQGTLVTVSA VL: DVLMTQTPLSLPVSLGDQASISCRSSQSIVHRNGNTYLEWYLQKPGQSPKLLIYKVSNRFSGVPDRFSGSGSGTDFTLRISRVEAEDLGVYYCFQGSHVPYTFGGGTKLEIK
[A] 65

Values from patent US20230235048A1
